Entry source: PubChem BioAssay AID2060887

Test system: 782815-120-R-J1-PDC complex spheroid viability;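 further: spheroids exposed to compounds for 7 days before reading; 100% = DMSO vehicle control viability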
Assay explanation: Anticancer human tumor 782815-120-R-J1-PDC patient-derived colon adenocarcinoma cell line growth inhibition [RAS]
Settings: second compound 0.00949 µM; first compound 3.16 µM; stronger effect = lower value
Excerpt: RAS pathway inhibitors in Combinations in Complex Spheroids A high-throughput screen of multi-cell type tumor spheroids was designed to identify active combinations of RAS pathway inhibitors and targeted small molecules. Complex spheroids include a stromal component modeled by human endothelial cells (HUVEC) and fibroblasts modeled by human mesenchymal stem cells (MSCs). […] Compounds. […] If the clinical Cmax for an agent had not been determined, the highest concentration tested was 10 microM. […]
The compounds listed here are annotated with their viability, T/C.
Just the number please, in %, no unit attached.

Some compounds with known viability, T/C results, for comparison:
[
  {
    "Compound": "CC(C)NCC(C(=O)N1CCN(c2ncnc3c2C(C)CC3O)CC1)c1ccc(Cl)cc1 (stereo unspecified) + CCn1c(-c2cccnc2C(C)OC)c2c3cc(ccc31)N1CCOC(CC(NC(=O)C(C(C)C)N(C)C(=O)C3(F)CCN(C(=O)C#CC(C)(C)N(C)C)CC3)C(=O)N3CCCC(N3)C(=O)OCC(C)(C)C2)C1",
    "Readout unit": "%",
    "Readout value": 104
  },
  {
    "Compound": "CC1(O)CCCC1n1c(=O)c(C(F)F)cc2cnc(NC3CCN(S(C)(=O)=O)CC3)nc21 (stereo unspecified) + CCn1c(-c2cccnc2C(C)OC)c2c3cc(ccc31)N1CCOC(CC(NC(=O)C(C(C)C)N(C)C(=O)C3(F)CCN(C(=O)C#CC(C)(C)N(C)C)CC3)C(=O)N3CCCC(N3)C(=O)OCC(C)(C)C2)C1",
    "Readout unit": "%",
    "Readout value": 55
  }
]

Request: Quick check: viability, T/C of NC1c2ccccc2OC12CCN(c1cnc3c(N4CCCc5ncccc54)n[nH]c3n1)CC2 (stereo unspecified) + CCn1c(-c2cc(N3CCN(C)CC3)cnc2C(C)OC)c2c3cc(ccc31)-c1csc(n1)CC(NC(=O)C1CC1C)C(=O)N1CCCC(N1)C(=O)OCC(C)(C)C2 ?
Result: 24.4

Request: Need viability, T/C of CC(C)NCC(C(=O)N1CCN(c2ncnc3c2C(C)CC3O)CC1)c1ccc(Cl)cc1 (stereo unspecified) + CCn1c(-c2cc(N3CCN(C)CC3)cnc2C(C)OC)c2c3cc(ccc31)-c1csc(n1)CC(NC(=O)C1CC1C)C(=O)N1CCCC(N1)C(=O)OCC(C)(C)C2 , thanks.
Result: 30

Request: Item under review: Cc1nc(N2CCC3(CC2)COC(C)C3N)c(CO)nc1Sc1ccnc(N)c1Cl (stereo unspecified) + CCn1c(-c2cc(N3CCN(C)CC3)cnc2C(C)OC)c2c3cc(ccc31)-c1csc(n1)CC(NC(=O)C1CC1C)C(=O)N1CCCC(N1)C(=O)OCC(C)(C)C2 . Reported viability, T/C?
Result: 30.3

Request: Which viability, T/C reading was recorded for the compound Cc1nc(N2CCC3(CC2)COC(C)C3N)c(CO)nc1Sc1ccnc(N)c1Cl (stereo unspecified) + CCn1c(-c2cccnc2C(C)OC)c2c3cc(ccc31)N1CCOC(CC(NC(=O)C(C(C)C)N(C)C(=O)C3(F)CCN(C(=O)C#CC(C)(C)N(C)C)CC3)C(=O)N3CCCC(N3)C(=O)OCC(C)(C)C2)C1 ?
Result: 111
